Listed here are compounds together with their documented GI50.
test system: UACC-257 melanoma; assay: NCI tumour cell line growth inhibition, 48 h
QUANTITY_NAME: GI50

COMPOUND: NC(=O)c1cc(Cl)ccc1NC(=O)/C=C/c1ccccc1
TEST_SYSTEM: UACC-257 melanoma
QUANTITY_NAME: GI50
DATA_VALUE: > 38.8 µM

COMPOUND: CC(C)c1ccc(-c2cc(-c3cn[nH]c3-c3ccccn3)ccn2)cc1
TEST_SYSTEM: UACC-257 melanoma
QUANTITY_NAME: GI50
DATA_VALUE: > 25 µM

COMPOUND: CC/C=C\C[C@H](O)C/C=C1/C(=O)C=C[C@@H]1C/C=C\CCCC(=O)OC
TEST_SYSTEM: UACC-257 melanoma
QUANTITY_NAME: GI50
DATA_VALUE: 2.36 µM

COMPOUND: CCCC(CCC)NCC(O)c1cc(-c2ccc(C(F)(F)F)cc2)nc(C(F)(F)F)c1 (centres undefined)
TEST_SYSTEM: UACC-257 melanoma
QUANTITY_NAME: GI50
DATA_VALUE: 1.8 µM

COMPOUND: COc1ccc(C(=O)c2cc(C)c(OC)c(C)c2)cc1OC(=O)CCl
TEST_SYSTEM: UACC-257 melanoma
QUANTITY_NAME: GI50
DATA_VALUE: 19 µM

COMPOUND: COc1ccc(-c2[nH]c3ccc(OC)cc3c2/C=C(\C#N)S(=O)(=O)c2ccccc2)cc1
TEST_SYSTEM: UACC-257 melanoma
QUANTITY_NAME: GI50
DATA_VALUE: 7.06 µM

COMPOUND: CCNCCNc1cc(-c2ccc(C(F)(F)F)cc2)c(C#N)c2nc3ccccc3n12
TEST_SYSTEM: UACC-257 melanoma
QUANTITY_NAME: GI50
DATA_VALUE: 2.18 µM

COMPOUND: C=CCCCCC/C=C\[C@@H](O)C#CC#C/C=C/CO
TEST_SYSTEM: UACC-257 melanoma
QUANTITY_NAME: GI50
DATA_VALUE: > 100 µM

COMPOUND: COc1ccc(C[N+](C)(C)N)cc1OC
TEST_SYSTEM: UACC-257 melanoma
QUANTITY_NAME: GI50
DATA_VALUE: > 100 µM

COMPOUND: COc1cc2c(cc1OCCCCC(=O)Nc1cc3c4ccccc4ccc3c3ccccc13)N=C[C@@H]1CCCN1C2=O
TEST_SYSTEM: UACC-257 melanoma
QUANTITY_NAME: GI50
DATA_VALUE: 7.77 µM

COMPOUND: C=C1C(=O)O[C@H]2[C@H]1CC/C(COC(=O)NCCCCNC(=O)OC/C1=C/CC[C@@]3(C)O[C@H]3[C@H]3OC(=O)C(=C)[C@@H]3CC1)=C\CC[C@@]1(C)O[C@@H]21
TEST_SYSTEM: UACC-257 melanoma
QUANTITY_NAME: GI50
DATA_VALUE: 1.68 µM

COMPOUND: CC1(C)C(=O)/C(=C\c2cccnc2)C[C@]2(C)[C@H]3CC[C@@H]4[C@H]5[C@H](C(=O)/C=C/c6cccnc6)CC[C@]5(C(=O)O)CC[C@@]4(C)[C@]3(C)CC[C@@H]12
TEST_SYSTEM: UACC-257 melanoma
QUANTITY_NAME: GI50
DATA_VALUE: 1.88 µM

COMPOUND: COc1cc2ncnc(-n3ncc4cc(NC(=O)Nc5ccccc5)ccc43)c2cc1OC
TEST_SYSTEM: UACC-257 melanoma
QUANTITY_NAME: GI50
DATA_VALUE: 2.32 µM

COMPOUND: C/C(=N\Nc1ccc(Cl)cn1)c1ccc2ccccc2n1
TEST_SYSTEM: UACC-257 melanoma
QUANTITY_NAME: GI50
DATA_VALUE: 5.33 µM
